# System: GCase (Homo sapiens, UniProt P04062)
# Sequence (P04062 40-536): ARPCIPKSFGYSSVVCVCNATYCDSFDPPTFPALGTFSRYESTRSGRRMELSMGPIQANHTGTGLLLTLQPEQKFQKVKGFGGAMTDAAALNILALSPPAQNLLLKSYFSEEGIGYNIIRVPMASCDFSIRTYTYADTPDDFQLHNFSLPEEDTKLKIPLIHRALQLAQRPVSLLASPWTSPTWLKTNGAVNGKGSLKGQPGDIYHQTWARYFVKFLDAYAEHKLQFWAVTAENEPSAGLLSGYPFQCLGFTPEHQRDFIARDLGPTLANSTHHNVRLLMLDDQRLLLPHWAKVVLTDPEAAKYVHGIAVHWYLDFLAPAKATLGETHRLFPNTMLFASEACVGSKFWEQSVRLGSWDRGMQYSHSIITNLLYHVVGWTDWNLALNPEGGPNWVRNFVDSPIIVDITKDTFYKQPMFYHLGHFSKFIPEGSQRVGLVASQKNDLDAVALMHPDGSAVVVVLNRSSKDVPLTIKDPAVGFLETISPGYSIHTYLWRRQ
# Run Description: Inhibitory activity towards human GCase in leukocyte extracts from healthy donors
# Format: biochemical
# Parameters: screened towards GCase from leukocytes isolated from healthy donors (controls); Isolated leukocytes were disrupted by sonication; from tissue; host or cells: pooled human leukocytes from healthy donors, sonicated homogenate
# Setup Conditions: with respect to monovalent compound 18
Reported Property: rp (relative potency)

Compound	Reported Property	Endpoint Result
NC(COCc1cn(CCCCCCCCCN2C[C@@H](O)C(O)[C@H](O)C2)nn1)(COCc1cn(CCCCCCCCCN2C[C@@H](O)C(O)[C@H](O)C2)nn1)COCc1cn(CCCCCCCCCN2C[C@@H](O)C(O)[C@H](O)C2)nn1 [Compound 11]	rp (relative potency)	19
OC1[C@H](O)CN(CCCCCCCCCn2cc(COCC(COCc3cn(CCCCCCCCCN4C[C@@H](O)C(O)[C@H](O)C4)nn3)(COCc3cn(CCCCCCCCCN4C[C@@H](O)C(O)[C@H](O)C4)nn3)COCc3cn(CCCCCCCCCN4C[C@@H](O)C(O)[C@H](O)C4)nn3)nn2)C[C@H]1O [Compound 13]	rp (relative potency)	56
O=C(CCCCC(=O)NC(COCc1cn(CCCCCCCCCN2C[C@@H](O)C(O)[C@H](O)C2)nn1)(COCc1cn(CCCCCCCCCN2C[C@@H](O)C(O)[C@H](O)C2)nn1)COCc1cn(CCCCCCCCCN2C[C@@H](O)C(O)[C@H](O)C2)nn1)NC(COCc1cn(CCCCCCCCCN2C[C@@H](O)C(O)[C@H](O)C2)nn1)(COCc1cn(CCCCCCCCCN2C[C@@H](O)C(O)[C@H](O)C2)nn1)COCc1cn(CCCCCCCCCN2C[C@@H](O)C(O)[C@H](O)C2)nn1 [Compound 15]	rp (relative potency)	45
OC1[C@H](O)CN(CCCCCCCCCn2cc(COC[C@@H](OCc3cn(CCCCCCCCCN4C[C@@H](O)C(O)[C@H](O)C4)nn3)[C@@H](OCc3cn(CCCCCCCCCN4C[C@@H](O)C(O)[C@H](O)C4)nn3)[C@H](OCc3cn(CCCCCCCCCN4C[C@@H](O)C(O)[C@H](O)C4)nn3)[C@@H](COCc3cn(CCCCCCCCCN4C[C@@H](O)C(O)[C@H](O)C4)nn3)OCc3cn(CCCCCCCCCN4C[C@@H](O)C(O)[C@H](O)C4)nn3)nn2)C[C@H]1O [Compound 14]	rp (relative potency)	83
